testSystem: human A2A receptors (Homo sapiens (Human), UniProt P29274)
Sequence (P29274 whole entry): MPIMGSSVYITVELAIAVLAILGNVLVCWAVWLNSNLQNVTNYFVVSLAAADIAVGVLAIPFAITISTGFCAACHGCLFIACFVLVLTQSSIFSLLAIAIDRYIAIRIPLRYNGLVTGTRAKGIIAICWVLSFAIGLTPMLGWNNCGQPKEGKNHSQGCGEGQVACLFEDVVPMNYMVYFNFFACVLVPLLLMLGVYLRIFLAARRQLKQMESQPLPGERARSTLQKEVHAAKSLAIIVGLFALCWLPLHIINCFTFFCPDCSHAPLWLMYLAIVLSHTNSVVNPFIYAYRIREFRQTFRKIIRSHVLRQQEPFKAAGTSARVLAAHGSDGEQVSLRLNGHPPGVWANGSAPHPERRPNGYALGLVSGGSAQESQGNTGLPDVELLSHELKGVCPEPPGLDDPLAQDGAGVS
assayNotes: A2A antagonism in cAMP cell-based assay (LANCE cAMP, HEK293)
testContext: HEK293 cells expressing human A2A receptor
Description: Measurement of A2A and A2B Antagonism in cAMP Cell-Based Assay The ability of compounds to antagonize human A2A and A2B adenosine receptors was determined using a kit to measure changes in intracellular cyclic AMP levels (LANCE cAMP 384 Kit, Perkin Elmer, Cat. No. AD0264). […]
Mark Satisfied only when IC50 stays strictly below 0.1 µM. Values equal to the cut-off are Not satisfied.

| compound | testSystem | label |
| --- | --- | --- |
| COc1cc(F)cc2c1nc(N)n1nc(C3CC(C)CN(c4cn(C(C)C(C)O)nc4C)C3)nc21 (single isomer, unassigned) [Example 226] | human A2A receptors (Homo sapiens (Human), UniProt P29274) | Satisfied |

Qu. Quick check: does COc1cc2nc(N)n3nc(C4CC(C)CN(c5cnn(C(C)(C)CO)c5)C4)nc3c2cc1F (single isomer, unassigned) [Example 172] have IC50 under 0.1 µM?
Ans. Satisfied

Qu. Also need COc1cc2nc(N)n3nc(C4CCC(C)N(c5cnn(CC(C)(O)CO)c5)C4)nc3c2cc1F (single isomer, unassigned) [Example 254] , thanks.
Ans. Satisfied

====

testSystem: human A2B receptors (Homo sapiens (Human))
Sequence (P29275 whole entry): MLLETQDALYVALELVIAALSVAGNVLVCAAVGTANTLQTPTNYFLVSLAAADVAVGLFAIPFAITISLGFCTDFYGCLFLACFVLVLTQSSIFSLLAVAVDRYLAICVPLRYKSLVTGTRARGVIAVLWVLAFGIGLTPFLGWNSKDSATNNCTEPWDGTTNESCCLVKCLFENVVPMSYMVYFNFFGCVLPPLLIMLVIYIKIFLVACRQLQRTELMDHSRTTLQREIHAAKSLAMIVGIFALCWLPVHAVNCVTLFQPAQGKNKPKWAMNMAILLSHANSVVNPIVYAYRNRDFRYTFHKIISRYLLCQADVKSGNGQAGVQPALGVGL
assayNotes: A2B antagonism in cAMP cell-based assay (LANCE cAMP, HEK293)
testContext: HEK293 cells expressing human A2B receptor
readoutLabel: IC50 (nM)
Write down the numeric answer in nM and omit the unit.

Recorded IC50, per entry:
| compound | numericResult |
| --- | --- |
| COc1cc2nc(N)n3nc(C4CCC(C)N(c5cnn(C(C)(C)C(C)O)c5)C4)nc3c2cc1F (single isomer, unassigned) [Example 264] | 14.3 |
| Cc1nn(C(C)C(C)O)cc1N1CC(C)CC(c2nc3c4cc(F)cc(F)c4nc(N)n3n2)C1 (single isomer, unassigned) [Example 215] | 27.5 |

Qu. Quick check: IC50 of CC(O)C(C)(C)n1cc(N2CCC[C@@H](c3nc4c5cc(F)cc(F)c5nc(N)n4n3)C2)cn1 (single isomer, unassigned) [Example 247] ?
Ans. 21.8

Qu. Also need CC(O)C(C)n1cc(N2CC(c3nc4c5cc(F)cc(F)c5nc(N)n4n3)CCC2C)cn1 (single isomer, unassigned) [Example 233] , thanks.
Ans. 5.6

Qu. Also need COc1cc2nc(N)n3nc([C@@H]4C[C@H](C)CN(c5cnn(CC(C)(C)O)c5)C4)nc3c2cc1F (single isomer, unassigned) [Example 157] , thanks.
Ans. 4480

Qu. Also need COc1cc2nc(N)n3nc(C4CCC(C)N(c5cnn(C(C)C(C)O)c5)C4)nc3c2cc1F (single isomer, unassigned) [Example 238] , thanks.
Ans. 2440

Qu. Also need COc1cc2nc(N)n3nc([C@@H]4CCCN(c5cnn(C(C)C(C)O)c5)C4)nc3c2cc1F (single isomer, unassigned) [Example 187] , thanks.
Ans. 95.8

Qu. Also need COc1cc2nc(N)n3nc([C@@H]4CC[C@H](C)N(c5cnn([C@@H](C)[C@H](C)O)c5)C4)nc3c2cc1F (single isomer, unassigned) [Example 228] , thanks.
Ans. 16.1

Cited source for all entries: patent US11312719B2
